Test system: 317291-083-R-J1-PDC complex spheroid growth
Assay: Anticancer human tumor 317291-083-R-J1-PDC patient-derived soft tissue sarcoma cell line growth inhibition [Asc]
Settings: second compound 0.01 µM; first compound 0.01 µM; stronger effect = lower value
For each of the compounds below, state its viability, T/C.
State the answer as a number, implicitly in %.

For the compound shown here, NC1CCC(NC2CC2c2ccccc2)CC1 (stereo not given) + CNC(C)C(=O)NC1CN(S(=O)(=O)c2cccc(S(=O)(=O)N3CCC4CCC(C(=O)NC(c5ccccc5)c5ccccc5)N4C(=O)C(NC(=O)C(C)NC)C3)c2)CCC2CCC(C(=O)NC(c3ccccc3)c3ccccc3)N2C1=O , give the reported viability, T/C.
93.7

Same question, O=C(c1ccc(F)c(F)c1Nc1ccc(I)cc1F)N1CC(O)([C@@H]2CCCCN2)C1 + CNC(C)C(=O)NC1CN(S(=O)(=O)c2cccc(S(=O)(=O)N3CCC4CCC(C(=O)NC(c5ccccc5)c5ccccc5)N4C(=O)C(NC(=O)C(C)NC)C3)c2)CCC2CCC(C(=O)NC(c3ccccc3)c3ccccc3)N2C1=O this time
73.2

Also check CCN1CCN(Cc2ccc(Nc3ncc(F)c(-c4cc(F)c5nc(C)n(C(C)C)c5c4)n3)nc2)CC1 + CNC(C)C(=O)NC1CN(S(=O)(=O)c2cccc(S(=O)(=O)N3CCC4CCC(C(=O)NC(c5ccccc5)c5ccccc5)N4C(=O)C(NC(=O)C(C)NC)C3)c2)CCC2CCC(C(=O)NC(c3ccccc3)c3ccccc3)N2C1=O
90

Also need Cn1ncnc1[C@H]1c2n[nH]c(=O)c3cc(F)cc(c23)N[C@@H]1c1ccc(F)cc1 + CNC(C)C(=O)NC1CN(S(=O)(=O)c2cccc(S(=O)(=O)N3CCC4CCC(C(=O)NC(c5ccccc5)c5ccccc5)N4C(=O)C(NC(=O)C(C)NC)C3)c2)CCC2CCC(C(=O)NC(c3ccccc3)c3ccccc3)N2C1=O , thanks.
29.3

Entry to check: COc1c(OCCCN2CCOCC2)ccc2c3n(c(=NC(=O)c4cnc(N)nc4)nc12)CCN3 + CNC(C)C(=O)NC1CN(S(=O)(=O)c2cccc(S(=O)(=O)N3CCC4CCC(C(=O)NC(c5ccccc5)c5ccccc5)N4C(=O)C(NC(=O)C(C)NC)C3)c2)CCC2CCC(C(=O)NC(c3ccccc3)c3ccccc3)N2C1=O
103

----------
Tested on: 317291-083-R-J1-PDC complex spheroid growth
Experiment: Anticancer human tumor 317291-083-R-J1-PDC cell line growth inhibition [Asc];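 note: compound exposure lasted seven days after spheroids formed for three days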
Details: curve of first compound; second compound 10 µM
measured_quantity: pIC50
Convention used: pIC50 is expressed as -log10 of the molar concentration.

# get_value(readout='pIC50', item= C#Cc1c(F)ccc2cc(O)cc(-c3ncc4c(N5CC6CCC(C5)N6)nc(OCC56CCCN5CC(F)C6)nc4c3F)c12 (configuration not stated) + Cc1c(S(C)(=O)=O)c(-c2cc(F)cc(N3CCN(c4ccc(NS(=O)(=O)c5ccc(NC(CCN6CCC(C(=O)OCCCP(=O)(O)O)CC6)CSc6ccccc6)c(S(=O)(=O)C(F)(F)F)c5)cc4)CC3)c2)c(-c2ccc(Cl)cc2)n1C(C)C )
5.00

Same question, C=C(F)C(=O)N1CCN(c2nc(OCC3CCCN3C)nc3c2CCN(c2cccc4cccc(Cl)c24)C3)CC1CC#N (configuration not stated) + Cc1c(S(C)(=O)=O)c(-c2cc(F)cc(N3CCN(c4ccc(NS(=O)(=O)c5ccc(NC(CCN6CCC(C(=O)OCCCP(=O)(O)O)CC6)CSc6ccccc6)c(S(=O)(=O)C(F)(F)F)c5)cc4)CC3)c2)c(-c2ccc(Cl)cc2)n1C(C)C this time
5.80

----------
Field: viability, T/C. Provide a value for each of the compounds that follow.
System: 317291-083-R-J1-PDC complex spheroid growth
Assay: Anticancer human tumor 317291-083-R-J1-PDC cell line growth inhibition [Asc];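 note: compound exposure lasted seven days after spheroids formed for three days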;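 for viability, T/C: 100% = DMSO vehicle control wells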
Settings: second compound 0.0316 µM; first compound 0.01 µM; stronger effect = lower value
Only the number, expressed in %, is required.

Given NC1CCC(NC2CC2c2ccccc2)CC1 (stereo not given) + CNC(C)C(=O)NC1CN(S(=O)(=O)c2cccc(S(=O)(=O)N3CCC4CCC(C(=O)NC(c5ccccc5)c5ccccc5)N4C(=O)C(NC(=O)C(C)NC)C3)c2)CCC2CCC(C(=O)NC(c3ccccc3)c3ccccc3)N2C1=O , state its recorded viability, T/C.
70.1

Note, next up: Cn1ncnc1[C@H]1c2n[nH]c(=O)c3cc(F)cc(c23)N[C@@H]1c1ccc(F)cc1 + Cc1c(S(C)(=O)=O)c(-c2cc(F)cc(N3CCN(c4ccc(NS(=O)(=O)c5ccc(NC(CCN6CCC(C(=O)OCCCP(=O)(O)O)CC6)CSc6ccccc6)c(S(=O)(=O)C(F)(F)F)c5)cc4)CC3)c2)c(-c2ccc(Cl)cc2)n1C(C)C
85.6

# repeat for CCN1CCN(Cc2ccc(Nc3ncc(F)c(-c4cc(F)c5nc(C)n(C(C)C)c5c4)n3)nc2)CC1 + Cc1c(S(C)(=O)=O)c(-c2cc(F)cc(N3CCN(c4ccc(NS(=O)(=O)c5ccc(NC(CCN6CCC(C(=O)OCCCP(=O)(O)O)CC6)CSc6ccccc6)c(S(=O)(=O)C(F)(F)F)c5)cc4)CC3)c2)c(-c2ccc(Cl)cc2)n1C(C)C
105

Item: COc1c(OCCCN2CCOCC2)ccc2c3n(c(=NC(=O)c4cnc(N)nc4)nc12)CCN3 + Cc1c(S(C)(=O)=O)c(-c2cc(F)cc(N3CCN(c4ccc(NS(=O)(=O)c5ccc(NC(CCN6CCC(C(=O)OCCCP(=O)(O)O)CC6)CSc6ccccc6)c(S(=O)(=O)C(F)(F)F)c5)cc4)CC3)c2)c(-c2ccc(Cl)cc2)n1C(C)C
116

CCN1CCN(Cc2ccc(Nc3ncc(F)c(-c4cc(F)c5nc(C)n(C(C)C)c5c4)n3)nc2)CC1 + CNC(C)C(=O)NC1CN(S(=O)(=O)c2cccc(S(=O)(=O)N3CCC4CCC(C(=O)NC(c5ccccc5)c5ccccc5)N4C(=O)C(NC(=O)C(C)NC)C3)c2)CCC2CCC(C(=O)NC(c3ccccc3)c3ccccc3)N2C1=O , same question.
79.6

----------
System: 317291-083-R-J1-PDC complex spheroid growth
Test: Anticancer human tumor 317291-083-R-J1-PDC cell line growth inhibition [Asc];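 note: compound exposure lasted seven days after spheroids formed for three days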;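 for viability, T/C: 100% = DMSO vehicle control wells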
Conditions: second compound 0.1 µM; first compound 0.000316 µM; stronger effect = lower value
measured_quantity: viability, T/C (%)
API: value field is a number in %; no unit string.

Given Cn1ncnc1[C@H]1c2n[nH]c(=O)c3cc(F)cc(c23)N[C@@H]1c1ccc(F)cc1 + CNC(C)C(=O)NC1CN(S(=O)(=O)c2cccc(S(=O)(=O)N3CCC4CCC(C(=O)NC(c5ccccc5)c5ccccc5)N4C(=O)C(NC(=O)C(C)NC)C3)c2)CCC2CCC(C(=O)NC(c3ccccc3)c3ccccc3)N2C1=O , state its recorded viability, T/C.
95.4

Then what about the compound NC1CCC(NC2CC2c2ccccc2)CC1 (centres undefined) + Cc1c(S(C)(=O)=O)c(-c2cc(F)cc(N3CCN(c4ccc(NS(=O)(=O)c5ccc(NC(CCN6CCC(C(=O)OCCCP(=O)(O)O)CC6)CSc6ccccc6)c(S(=O)(=O)C(F)(F)F)c5)cc4)CC3)c2)c(-c2ccc(Cl)cc2)n1C(C)C ?
107

Request: NC1CCC(NC2CC2c2ccccc2)CC1 (centres undefined) + CNC(C)C(=O)NC1CN(S(=O)(=O)c2cccc(S(=O)(=O)N3CCC4CCC(C(=O)NC(c5ccccc5)c5ccccc5)N4C(=O)C(NC(=O)C(C)NC)C3)c2)CCC2CCC(C(=O)NC(c3ccccc3)c3ccccc3)N2C1=O
67.5

// next record Cn1ncnc1[C@H]1c2n[nH]c(=O)c3cc(F)cc(c23)N[C@@H]1c1ccc(F)cc1 + Cc1c(S(C)(=O)=O)c(-c2cc(F)cc(N3CCN(c4ccc(NS(=O)(=O)c5ccc(NC(CCN6CCC(C(=O)OCCCP(=O)(O)O)CC6)CSc6ccccc6)c(S(=O)(=O)C(F)(F)F)c5)cc4)CC3)c2)c(-c2ccc(Cl)cc2)n1C(C)C
91

----------
Tested on: 317291-083-R-J1-PDC complex spheroid growth
Assay: Anticancer human tumor 317291-083-R-J1-PDC cell line growth inhibition [Asc];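 note: compound exposure lasted seven days after spheroids formed for three days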;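 for viability, T/C: 100% = DMSO vehicle control wells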
Conditions: second compound 1 µM; first compound 0.00316 µM; stronger effect = lower value
measured_quantity: viability, T/C (%)
// units = %; emit number, no label

Consider the compound Cn1ncnc1[C@H]1c2n[nH]c(=O)c3cc(F)cc(c23)N[C@@H]1c1ccc(F)cc1 + Cc1c(S(C)(=O)=O)c(-c2cc(F)cc(N3CCN(c4ccc(NS(=O)(=O)c5ccc(NC(CCN6CCC(C(=O)OCCCP(=O)(O)O)CC6)CSc6ccccc6)c(S(=O)(=O)C(F)(F)F)c5)cc4)CC3)c2)c(-c2ccc(Cl)cc2)n1C(C)C and give its measured viability, T/C.
71.2

# iterate: CCN1CCN(Cc2ccc(Nc3ncc(F)c(-c4cc(F)c5nc(C)n(C(C)C)c5c4)n3)nc2)CC1 + CNC(C)C(=O)NC1CN(S(=O)(=O)c2cccc(S(=O)(=O)N3CCC4CCC(C(=O)NC(c5ccccc5)c5ccccc5)N4C(=O)C(NC(=O)C(C)NC)C3)c2)CCC2CCC(C(=O)NC(c3ccccc3)c3ccccc3)N2C1=O
32.9
